Provide the recorded EC50 for the entries that follow.
- Subject Of Test: Luciferin 4-monooxygenase (Photinus pyralis, UniProt P08659)
- Sequence (P08659 whole entry): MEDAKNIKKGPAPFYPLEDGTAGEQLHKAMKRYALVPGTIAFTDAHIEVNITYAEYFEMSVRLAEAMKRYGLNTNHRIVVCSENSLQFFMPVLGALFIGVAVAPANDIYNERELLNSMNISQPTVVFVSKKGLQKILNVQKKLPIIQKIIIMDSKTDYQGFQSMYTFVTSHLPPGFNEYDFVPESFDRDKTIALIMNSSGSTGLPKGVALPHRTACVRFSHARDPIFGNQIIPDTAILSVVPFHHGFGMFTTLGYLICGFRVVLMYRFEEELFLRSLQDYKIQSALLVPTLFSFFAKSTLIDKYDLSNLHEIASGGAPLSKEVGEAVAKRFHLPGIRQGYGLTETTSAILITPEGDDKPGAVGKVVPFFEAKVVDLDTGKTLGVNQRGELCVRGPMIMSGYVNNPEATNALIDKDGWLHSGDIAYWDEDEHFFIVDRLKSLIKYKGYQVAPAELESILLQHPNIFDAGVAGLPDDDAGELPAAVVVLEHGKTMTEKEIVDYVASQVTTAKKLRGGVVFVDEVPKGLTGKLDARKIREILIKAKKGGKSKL
- Protocol Details: inhibition of purified Photinus pyralis luciferase – biochemical, luminescence, dose response (AID 1891)
Calls of active or inactive are those of the source.

These recorded examples may help you get a feel for the data.
NC(=O)c1ccc[n+](Cc2ccccc2)c1 ... > 112 µM (not active)
C/C(=N\NC(=O)C1(C)CC1(Br)Br)c1ccc(NC(=O)c2ccc(C)o2)cc1 (configuration not stated) ... > 112 µM (not active)
CC(C)(C)C(Cn1ccnc1)NC(=O)c1ccc2nc(C3CC3)oc2c1 (configuration not stated) ... > 112 µM (not active)
CC(=O)c1ccc(NC(=O)CCc2nnc3ccc(NCc4ccco4)nn23)cc1 ... > 112 µM (not active)
CC(=O)N(Cc1c(C#N)c2ccccc2n1C)c1ccccc1 ... > 112 µM (not active)
COc1cccc(C(=O)c2cc3ccc(O)cc3oc2=O)c1 ... 0.571 µM (active)
CC(N)Cc1ccccc1Sc1ccc(O)cc1 (configuration not stated) ... > 112 µM (not active)
COc1cc(/C=N/NC(=O)c2nonc2C)ccc1O ... 23.5 µM (active)
O=C(Nc1ccc2oc(-c3ccccc3)nc2c1)C1CCCO1 (configuration not stated) ... 70.4 µM (active)
COC(=O)C(C(=O)NCC1CCCO1)C1CCCCCC1 (configuration not stated) ... > 112 µM (not active)

Below is a list of molecules. For each, state its recorded EC50.
1. O=C(COC(=O)c1ccc(Cl)c(S(=O)(=O)NCc2ccccc2)c1)NCC1CCCO1 (configuration not stated)
2. COc1ccc(-c2cn3ccc(C)cc3n2)cc1

Completion:
["> 112 µM (not active)", "1.13 µM (active)"]

###

- Subject Of Test: UniProt:Q07440
- Sequence (Q07440 whole entry): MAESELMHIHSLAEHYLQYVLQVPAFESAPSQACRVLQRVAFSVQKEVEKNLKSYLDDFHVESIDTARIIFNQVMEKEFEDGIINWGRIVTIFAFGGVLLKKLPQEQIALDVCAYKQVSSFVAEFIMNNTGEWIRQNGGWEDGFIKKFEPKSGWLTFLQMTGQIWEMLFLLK
- Protocol Details: small-molecule antagonists of Bfl-1/BH3 interaction – biochemical, TR-FRET, mouse Bfl-1, confirmation (AID 621);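 further: TR-FRET binding of GST-Bfl-1 to FITC-labelled Bid peptide via terbium antibody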
Calls of active or inactive are those of the source.
Metric: IC50

O=C1C(Cl)=C(N2CCN(c3ncccn3)CC2)C(=O)N1c1ccc(Cl)c(Cl)c1 ... 2.46 µM (active)
CS(=O)(=O)c1nc(-c2ccccc2)cc(-c2ccccc2)n1 ... > 100 µM (not active)
O=C1C(Cl)=C(Nc2ccccc2)C(=O)N1c1ccc(Cl)c(Cl)c1 ... > 100 µM (not active)

--- query ---
Prompt: // IC50 lookup, key: Cc1cccc(N2C(=O)C(Cl)=C(N3CCN(CCO)CC3)C2=O)c1
Completion: 11.5 µM (active)

###

Provide the recorded EC50 for the entries that follow.
- Protocol Details: Luminescence Cell-Based Dose Response HTS to Identify Activators of Luciferase Translation or Activity in H4 […] Cells. [Related pubchem assays: 1829 (Project Summary), 1814 (Primary HTS)]
- Assay type: functional
Activity calls are given as the source filed them.

These recorded examples may help you get a feel for the data.
COc1cccc(NC(=O)c2nnn(CCc3ccccc3)c2N)c1 ... 6.24 µM (active)
O=C(Nc1nc(=O)c2ccccc2s1)c1ccc(F)cc1 ... 0.107 µM (active)

Below is a list of compounds. For each, state its recorded EC50.
1. O=C1c2sc3nc4ccccc4n3c2C(=O)N1c1ccccc1Cl
2. CC1(C)CC(=O)C2=CNc3ccccc3N=C2C1

Completion:
13.8 µM (active)
> 120 µM (not active)

###

- Subject Of Test: Cytochrome P450 2C9 (Homo sapiens)
- Sequence (P11712 whole entry): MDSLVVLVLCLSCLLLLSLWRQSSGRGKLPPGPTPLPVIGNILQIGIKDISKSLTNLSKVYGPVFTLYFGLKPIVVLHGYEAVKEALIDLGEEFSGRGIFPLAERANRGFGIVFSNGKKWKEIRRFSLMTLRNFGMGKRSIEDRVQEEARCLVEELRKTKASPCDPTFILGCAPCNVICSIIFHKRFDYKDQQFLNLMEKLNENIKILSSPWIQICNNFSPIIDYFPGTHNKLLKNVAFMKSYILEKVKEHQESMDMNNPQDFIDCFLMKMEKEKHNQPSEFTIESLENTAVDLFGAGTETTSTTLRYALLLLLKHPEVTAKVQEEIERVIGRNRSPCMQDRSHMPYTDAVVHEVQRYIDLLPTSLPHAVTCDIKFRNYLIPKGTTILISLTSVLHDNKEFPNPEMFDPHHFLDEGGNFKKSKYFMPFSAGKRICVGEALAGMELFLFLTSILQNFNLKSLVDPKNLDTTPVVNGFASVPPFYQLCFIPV
Metric: AC50

These recorded examples may help you get a feel for the data.
C[C@]1(C2CCCC2)Cc2cc(OCC(=O)O)c(Cl)c(Cl)c2C1=O ... 39.8 µM (inconclusive)
O=C(c1cnccn1)N1CCC2(CC1)CN(Cc1ccccc1)C2 ... 31.6 µM (inconclusive)
CC(=O)N1CCC2(CC1)CCN(c1ccc(-c3ccccc3)cc1)CC2 ... 25.1 µM (inconclusive)

Below is a list of molecules. For each, state its recorded AC50.
1. COc1ccccc1CNc1ccnc(-c2ccccc2C(F)(F)F)n1
2. Cc1cccc(NC(=O)CC2Nc3cccc4cccc(c34)NC2=O)c1 (stereo unspecified)
3. COC(=O)c1cc(NC(=O)/C=C/c2ccc3c(c2)OCO3)cc(C(=O)OC)c1

Completion:
["0.0158 µM (inconclusive)", "12.6 µM (inconclusive)", "0.126 µM (inconclusive)"]

###

- Protocol Details: Trypanosoma cruzi growth suppression in host cells – NIH3T3 host cells, beta-gal luminescence, confirmation (AID 2044);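 further: intracellular parasites grown in NIH/3T3 mouse fibroblasts as host cells; luminescent beta-galactosidase reporter signal from transgenic T. cruzi replicating inside host cells; inhibitors lower the luminescence signal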
- Assay type: functional, cell-based
Calls of active or inactive are those of the source.
Metric: EC50

These recorded examples may help you get a feel for the data.
CC(=O)NC(c1ccc(C)cc1)c1cc(Cl)c2cccnc2c1O (centres undefined) ... 655 nM (active)
Cc1ccc(N(Cc2ccco2)C(=O)c2ccc(N3CCCCC3)c([N+](=O)[O-])c2)cc1 ... 1270 nM (active)
O=C(c1ccccc1)c1ccc2[nH]c(-c3ccc(NC(=O)c4ccccc4Br)cc3)nc2c1 ... 1590 nM (active)

Prompt: // EC50 lookup, key: COc1ccc(CCNCC(O)COc2cccc(C(C)=O)c2)cc1OC (centres undefined)
Completion: 225 nM (active)

###

- Subject Of Test: Voltage-gated N-type calcium channel alpha-1B subunit/Amyloid beta A4 precursor protein-binding family A member 1 (Homo sapiens, UniProt Q00975+Q02410)
- Sequence (Q00975 whole entry): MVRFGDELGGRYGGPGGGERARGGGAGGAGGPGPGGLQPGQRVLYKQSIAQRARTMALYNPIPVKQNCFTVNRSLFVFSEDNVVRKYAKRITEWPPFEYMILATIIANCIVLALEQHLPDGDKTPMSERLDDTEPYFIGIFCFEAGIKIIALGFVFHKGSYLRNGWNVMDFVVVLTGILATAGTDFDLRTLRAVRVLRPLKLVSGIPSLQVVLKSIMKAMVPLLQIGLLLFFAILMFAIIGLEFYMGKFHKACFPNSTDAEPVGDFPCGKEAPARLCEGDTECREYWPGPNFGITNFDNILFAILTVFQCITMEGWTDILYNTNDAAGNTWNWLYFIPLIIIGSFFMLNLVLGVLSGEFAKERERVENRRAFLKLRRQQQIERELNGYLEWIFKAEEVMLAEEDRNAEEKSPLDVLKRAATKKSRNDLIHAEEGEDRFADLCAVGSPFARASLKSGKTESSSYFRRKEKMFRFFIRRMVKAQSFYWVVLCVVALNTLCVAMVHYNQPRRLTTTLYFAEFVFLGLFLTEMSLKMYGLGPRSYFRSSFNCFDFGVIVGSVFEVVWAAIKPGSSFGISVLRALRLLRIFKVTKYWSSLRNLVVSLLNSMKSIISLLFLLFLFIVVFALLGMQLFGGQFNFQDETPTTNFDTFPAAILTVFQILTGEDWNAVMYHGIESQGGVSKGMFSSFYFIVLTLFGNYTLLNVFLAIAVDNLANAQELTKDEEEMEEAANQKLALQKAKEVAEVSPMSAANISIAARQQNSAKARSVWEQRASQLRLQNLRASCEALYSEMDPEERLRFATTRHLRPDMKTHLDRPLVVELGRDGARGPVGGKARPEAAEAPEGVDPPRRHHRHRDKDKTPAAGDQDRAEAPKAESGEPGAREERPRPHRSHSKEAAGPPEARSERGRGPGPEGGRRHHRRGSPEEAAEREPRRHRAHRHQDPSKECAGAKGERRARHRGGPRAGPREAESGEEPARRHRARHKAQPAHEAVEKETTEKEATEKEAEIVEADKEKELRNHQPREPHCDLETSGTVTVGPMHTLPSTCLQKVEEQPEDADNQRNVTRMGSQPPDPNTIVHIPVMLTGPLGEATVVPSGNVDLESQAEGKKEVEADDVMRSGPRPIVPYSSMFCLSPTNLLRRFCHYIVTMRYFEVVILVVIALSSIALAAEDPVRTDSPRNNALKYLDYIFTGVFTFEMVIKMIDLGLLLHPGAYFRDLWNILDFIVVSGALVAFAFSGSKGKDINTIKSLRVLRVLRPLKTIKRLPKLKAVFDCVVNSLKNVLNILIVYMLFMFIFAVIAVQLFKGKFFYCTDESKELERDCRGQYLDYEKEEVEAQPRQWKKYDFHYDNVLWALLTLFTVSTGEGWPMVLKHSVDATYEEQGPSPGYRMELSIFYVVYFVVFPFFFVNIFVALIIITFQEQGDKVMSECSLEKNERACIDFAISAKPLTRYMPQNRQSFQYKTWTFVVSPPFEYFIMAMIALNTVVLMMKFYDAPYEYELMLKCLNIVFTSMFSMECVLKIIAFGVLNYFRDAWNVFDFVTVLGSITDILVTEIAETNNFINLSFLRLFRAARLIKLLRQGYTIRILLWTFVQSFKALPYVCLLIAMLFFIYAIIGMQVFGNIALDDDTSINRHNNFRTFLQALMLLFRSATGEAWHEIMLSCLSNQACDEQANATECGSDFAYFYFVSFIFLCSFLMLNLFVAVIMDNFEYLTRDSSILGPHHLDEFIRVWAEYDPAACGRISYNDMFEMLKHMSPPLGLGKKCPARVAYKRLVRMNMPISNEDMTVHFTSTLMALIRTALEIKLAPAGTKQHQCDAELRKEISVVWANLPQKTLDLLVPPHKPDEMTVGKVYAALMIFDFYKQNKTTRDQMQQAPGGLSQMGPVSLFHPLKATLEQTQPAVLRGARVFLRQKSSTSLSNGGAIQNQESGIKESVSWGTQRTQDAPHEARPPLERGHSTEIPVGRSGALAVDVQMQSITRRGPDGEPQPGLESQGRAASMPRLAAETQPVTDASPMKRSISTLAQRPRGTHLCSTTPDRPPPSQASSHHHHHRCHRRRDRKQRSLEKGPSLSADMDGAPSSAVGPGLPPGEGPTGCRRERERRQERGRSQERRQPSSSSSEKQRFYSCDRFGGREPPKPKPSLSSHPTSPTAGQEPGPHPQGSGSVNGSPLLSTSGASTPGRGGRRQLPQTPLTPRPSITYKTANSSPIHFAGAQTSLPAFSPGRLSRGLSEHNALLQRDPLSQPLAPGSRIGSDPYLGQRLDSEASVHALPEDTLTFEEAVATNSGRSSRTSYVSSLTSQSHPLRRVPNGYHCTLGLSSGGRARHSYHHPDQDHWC
- Sequence (Q02410 whole entry): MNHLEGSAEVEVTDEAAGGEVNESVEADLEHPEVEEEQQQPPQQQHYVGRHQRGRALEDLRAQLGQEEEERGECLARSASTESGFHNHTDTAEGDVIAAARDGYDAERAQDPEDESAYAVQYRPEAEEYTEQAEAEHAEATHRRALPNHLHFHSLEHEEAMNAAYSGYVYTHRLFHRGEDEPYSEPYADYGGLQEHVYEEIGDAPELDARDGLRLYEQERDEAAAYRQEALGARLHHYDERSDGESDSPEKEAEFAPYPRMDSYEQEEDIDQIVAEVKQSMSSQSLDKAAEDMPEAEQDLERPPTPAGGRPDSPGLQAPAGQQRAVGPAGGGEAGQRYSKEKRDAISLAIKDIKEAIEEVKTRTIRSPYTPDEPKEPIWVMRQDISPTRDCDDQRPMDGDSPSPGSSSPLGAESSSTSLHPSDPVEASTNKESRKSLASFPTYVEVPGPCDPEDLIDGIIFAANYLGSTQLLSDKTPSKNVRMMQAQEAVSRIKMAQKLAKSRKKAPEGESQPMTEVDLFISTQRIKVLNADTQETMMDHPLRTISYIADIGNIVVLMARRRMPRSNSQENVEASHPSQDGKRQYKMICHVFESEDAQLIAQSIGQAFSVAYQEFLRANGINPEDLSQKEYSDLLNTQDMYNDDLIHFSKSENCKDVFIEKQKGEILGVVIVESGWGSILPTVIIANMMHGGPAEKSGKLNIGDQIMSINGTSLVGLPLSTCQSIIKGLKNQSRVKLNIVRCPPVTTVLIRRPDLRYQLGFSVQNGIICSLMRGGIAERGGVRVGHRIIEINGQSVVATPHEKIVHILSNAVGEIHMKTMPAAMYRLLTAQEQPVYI
- Type: protein assay
The source made the active and inactive calls.
// classify into Y for active, N for inactive

CC(C)n1cc(/C=N/Nc2ccc(Cl)c(C(=O)O)c2)c2ccccc21 ... N

Prompt: Query: recorded result category for Cc1cc2oc(C(=O)Nc3ccc(S(N)(=O)=O)cc3)c(C)c2cc1Cl in this test
Completion: N

Prompt: Query: recorded result category for CC(=O)Oc1ccc(-c2ccc(C(=O)NCCc3ccc(S(N)(=O)=O)cc3)cc2)cc1 in this test
Completion: N

Prompt: Query: recorded result category for CCCC(C(=O)NC1CCCC1)N(C(=O)Cn1nnc(-c2ccc(C)o2)n1)C1CCCC1 (stereo unspecified) in this test
Completion: Y

Prompt: Query: recorded result category for NS(=O)(=O)c1ccc(-c2ccc(C=C3C(=O)c4ccccc4C3=O)o2)cc1 in this test
Completion: N

Prompt: Query: recorded result category for Cc1ccc(-n2cccc2/C=C2\C(=N)N3N=C(c4ccco4)SC3=NC2=O)cc1 in this test
Completion: N

###

- Test system: Streptococcus
- Protocol Details: GAS UMAA2166 growth inhibition – luminescence, BacTiterGlo, counter-screen for streptokinase expression inhibitor project, dose response (AID 1915);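 further: potency for reduction of bacterial viability or growth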
- Format: functional, organism-based
Active and inactive are the calls of the source.
Metric: EC50

COc1cccc(N=Nc2ccc3cccnc3c2O)c1 ... 2.53 µM (active)
COc1ccc(CNCC(O)(c2ccc(Cl)cc2)c2ccc(Cl)cc2)cc1 ... 17.9 µM (active)
COc1ccc(-c2cc(C(F)(F)F)nc(NCc3cccs3)n2)cc1 ... > 150 µM (not active)
CC(C)(C)c1cc(C(=O)Nc2ccc(F)cc2)n(Cc2ccc(F)cc2)n1 ... 10.3 µM (active)
COc1ccc(C(=O)c2coc3c2C(=O)C(=O)c2ccccc2-3)cc1 ... 14.7 µM (active)
CC(=O)NC(c1ccc(C)cc1)c1cc(Cl)c2cccnc2c1O (stereo not given) ... 6.97 µM (active)
CCOC(=O)C1=C(C)N=C2C(=C(O)c3ccccc32)C1c1ccc([N+](=O)[O-])o1 (stereo not given) ... 29.9 µM (active)
CC1CCN(Cc2c(C(=O)N/N=C/c3cc(Cl)ccc3O)nnn2-c2nonc2N)CC1 ... > 150 µM (not active)
Cc1ccc2c(C)c(C(=O)Nc3ccc(S(=O)(=O)Nc4onc(C)c4C)cc3)oc2c1 ... > 150 µM (not active)

--- query ---
Prompt: // EC50 lookup, key: COc1ccc(C(Nc2cc(C)ccn2)c2ccc3ccc(C)nc3c2O)cc1 (stereo not given)
Completion: 54.9 µM (active)

###

- Subject Of Test: Calpain-2 catalytic subunit (Sus scrofa, UniProt P43367)
- Sequence (P43367 whole entry): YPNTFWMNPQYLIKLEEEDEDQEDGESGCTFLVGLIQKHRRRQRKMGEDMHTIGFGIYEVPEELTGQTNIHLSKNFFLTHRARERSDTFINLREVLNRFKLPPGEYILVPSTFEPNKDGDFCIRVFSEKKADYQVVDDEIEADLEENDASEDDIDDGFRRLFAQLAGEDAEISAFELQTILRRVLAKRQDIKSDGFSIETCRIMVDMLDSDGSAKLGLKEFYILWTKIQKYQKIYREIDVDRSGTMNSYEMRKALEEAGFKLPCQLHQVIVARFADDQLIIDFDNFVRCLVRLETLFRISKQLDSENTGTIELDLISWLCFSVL
- Protocol Details: m-calpain protease blockers, concentration series – biochemical, fluorogenic peptide substrate, dose response (AID 1420)
- Type: functional
Metric: IC50

These recorded examples may help you get a feel for the data.
CCCN(CCC)C(=O)CC(c1ccccc1)c1ccc(C)cc1O (stereo not given) ... > 50 µM (not active)
Cc1ccccc1NC1=NC(=O)/C(=C/c2cccn2-c2cccc(C(=O)O)c2)S1 ... 1.09 µM (not active)
COc1ccc(S(=O)(=O)N2CCC(NC(=O)OCc3c(Cl)cccc3Cl)CC2)cc1 ... 7.91 µM (not active)

Below is a list of compounds. For each, state its recorded IC50.
1. O=C(CSc1ccccn1)N/N=C/c1c[nH]c2ccccc12
2. COc1cccc(C2=CC(c3ccc(OC)c(OC)c3)NC(S)=N2)c1 (stereo not given)
3. COc1ccc(OC)c(NC(=O)CSc2nc3ccccc3c3nc4ccccc4n23)c1
4. O=C(Cc1ccccc1)NC(NC(=S)Nc1cc(Cl)ccc1Cl)C(Cl)(Cl)Cl (stereo not given)
5. CCCCCCCCCCCCCCCC[n+]1ccn(CC(C)=O)c1
6. Fc1cccc(Cn2cc(C(=S)N3CCCCC3)c3ccccc32)c1

Completion:
1: > 50 µM (not active); 2: 2.81 µM (not active); 3: > 50 µM (not active); 4: > 50 µM (not active); 5: 21.1 µM (not active); 6: 2.86 µM (not active)

Prompt: // IC50 lookup, key: CCCCN(CCCC)S(=O)(=O)c1ccc(NC(=O)c2ccc([N+](=O)[O-])cc2Cl)cc1
Completion: 1.42 µM (not active)

Data credit: ChEMBL document CHEMBL1201862
